# credit: patent US20260217706A1

Target: CBL-B protein (Homo sapiens, UniProt Q13191)
Sequence (Q13191 whole entry): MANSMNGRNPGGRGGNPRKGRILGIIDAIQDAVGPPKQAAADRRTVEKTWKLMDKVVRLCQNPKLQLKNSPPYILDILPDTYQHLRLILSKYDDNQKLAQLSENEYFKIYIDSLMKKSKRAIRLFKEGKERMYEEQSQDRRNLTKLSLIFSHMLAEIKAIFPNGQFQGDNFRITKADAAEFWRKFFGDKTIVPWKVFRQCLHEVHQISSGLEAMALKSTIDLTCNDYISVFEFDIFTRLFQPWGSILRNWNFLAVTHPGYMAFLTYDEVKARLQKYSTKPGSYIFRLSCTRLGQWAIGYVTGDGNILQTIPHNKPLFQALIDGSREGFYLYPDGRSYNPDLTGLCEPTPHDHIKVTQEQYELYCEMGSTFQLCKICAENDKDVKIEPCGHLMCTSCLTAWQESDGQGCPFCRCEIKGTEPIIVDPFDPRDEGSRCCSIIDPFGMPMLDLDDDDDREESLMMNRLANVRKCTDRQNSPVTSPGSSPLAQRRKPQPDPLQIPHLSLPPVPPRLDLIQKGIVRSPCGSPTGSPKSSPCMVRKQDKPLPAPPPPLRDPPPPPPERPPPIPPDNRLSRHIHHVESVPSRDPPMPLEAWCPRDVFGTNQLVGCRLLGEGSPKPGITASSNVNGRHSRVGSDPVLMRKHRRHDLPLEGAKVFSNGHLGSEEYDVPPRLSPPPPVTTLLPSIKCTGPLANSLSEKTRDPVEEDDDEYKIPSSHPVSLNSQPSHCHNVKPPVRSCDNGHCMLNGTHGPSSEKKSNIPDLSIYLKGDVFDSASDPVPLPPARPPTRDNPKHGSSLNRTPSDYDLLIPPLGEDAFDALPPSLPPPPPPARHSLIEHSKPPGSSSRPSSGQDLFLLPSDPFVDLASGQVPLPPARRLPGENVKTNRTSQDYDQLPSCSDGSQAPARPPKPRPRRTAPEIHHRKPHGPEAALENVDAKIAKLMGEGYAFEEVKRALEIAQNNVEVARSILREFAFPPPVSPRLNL
Experiment: CBL-B binding experiment (Streptavidin-Tb cryptate / Ligand L1 displacement)
Conditions: 8 nM CBL-B protein, 25° C., 60 minutes; Ki=Relative IC50/2
Readout: Ki

C[C@H]1CCCN(Cc2cc3c(S(C)(=O)=O)cn(-c4cccc(C5(Cc6nncn6C)COC5)c4)c(=O)c3[nH]2)C1 [Compound T089] has a reported Ki of < 50 nM

Cn1cnnc1C1(c2cccc(-n3cc(C(F)(F)F)c4cc(CN5CCC[C@@H](CC#N)C5)[nH]c4c3=O)c2)CCC1 [Compound T080] has a reported Ki of < 50 nM

C[C@H]1CCCN(Cc2cc3c(C4CC4)cn(-c4cccc([C@]5(Cc6nncn6C)C[C@@H](C)C5)c4)c(=O)c3[nH]2)C1 [Compound T036] has a reported Ki of 50 to 100 nM

C[C@H]1CCCN(Cc2cc3c(C(F)(F)F)cn(-c4cc(C#N)cc([C@]5(c6nncn6C)C[C@@H](C)C5)c4)c(=O)c3[nH]2)C1 [Compound T121] has a reported Ki of < 50 nM

Cn1cnnc1C1(c2cccc(-n3cc(C(F)(F)F)c4cc(CN5C[C@H]6C[C@@H]5CO6)[nH]c4c3=O)c2)CCC1 [Compound T032] has a reported Ki of < 50 nM

Cn1cnnc1C1(c2cccc(-n3cc(C(F)(F)F)c4cc(CN5CCC[C@H](CC#N)C5)[nH]c4c3=O)c2)CCC1 [Compound T081] has a reported Ki of < 50 nM
